Every entry's value here was drawn from ChEMBL document CHEMBL1145498.

Serine/threonine-protein kinase Nek2 (Homo sapiens) (UniProt P51955): reported ΔTm for various molecules.
Sequence (P51955 whole entry): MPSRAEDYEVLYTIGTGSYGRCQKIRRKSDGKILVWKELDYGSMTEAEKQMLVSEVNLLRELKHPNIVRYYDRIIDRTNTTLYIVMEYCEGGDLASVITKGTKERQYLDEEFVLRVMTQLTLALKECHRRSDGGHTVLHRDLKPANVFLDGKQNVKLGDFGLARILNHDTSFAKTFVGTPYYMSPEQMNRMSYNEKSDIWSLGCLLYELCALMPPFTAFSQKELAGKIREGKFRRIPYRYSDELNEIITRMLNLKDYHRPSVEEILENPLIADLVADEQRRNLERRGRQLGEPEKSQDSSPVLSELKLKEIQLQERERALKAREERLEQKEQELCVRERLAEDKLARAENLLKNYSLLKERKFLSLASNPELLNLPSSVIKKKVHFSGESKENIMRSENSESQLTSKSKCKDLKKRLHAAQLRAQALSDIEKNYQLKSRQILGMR
Please make sure the unit comes right after the number.

Examples with their reported ΔTm follow.
Recorded ΔTm of O=[N+]([O-])c1ccc(-c2nc(-c3ccc(F)cc3)c(-c3ccncc3)[nH]2)cc1 , please.
-0.5 °C

Request: Cc1cncc2cccc(S(=O)(=O)N3CCCNC[C@@H]3C)c12
-0.2 °C

Request: O=C1Cc2c([nH]c3ccc(Br)cc23)-c2ccccc2N1
1.3 °C

***
Recorded ΔTm of CCCCc1c(-c2ccc(O)cc2)[nH]c2nccnc12 , please.
-0.4 °C

Request: N#C/C(=C\c1ccc(O)c(O)c1)C(=O)Nc1ccccc1
1.4 °C

Request: CCOc1cc2ncnc(Nc3cccc(Br)c3)c2cc1OCC
1.1 °C

* * *

- Measurement Target: Casein kinase I isoform gamma-2 (Homo sapiens) (UniProt P78368)
- Sequence (P78368 whole entry, looked up, canonical isoform): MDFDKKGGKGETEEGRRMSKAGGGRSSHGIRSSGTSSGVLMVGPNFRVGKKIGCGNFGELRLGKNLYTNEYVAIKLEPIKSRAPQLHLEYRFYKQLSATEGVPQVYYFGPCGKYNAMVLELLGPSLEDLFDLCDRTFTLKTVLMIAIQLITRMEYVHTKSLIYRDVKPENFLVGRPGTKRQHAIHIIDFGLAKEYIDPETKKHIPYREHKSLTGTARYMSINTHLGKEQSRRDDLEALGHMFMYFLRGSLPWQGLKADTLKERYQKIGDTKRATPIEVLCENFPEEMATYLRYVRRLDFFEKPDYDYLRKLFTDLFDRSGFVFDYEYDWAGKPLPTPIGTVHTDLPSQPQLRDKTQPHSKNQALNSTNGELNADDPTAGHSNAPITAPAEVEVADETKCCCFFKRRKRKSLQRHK
Binarize ΔTm at 1 °C; below is yes (1), at or above is no (0).

# example entries with known answers
Please determine if COc1cc2ncnc(Nc3ccc(NC(=O)c4ccccc4)cc3)c2cc1OC is below 1 °C in terms of ΔTm.
yes (1)

Request: COc1cc(C[C@H]2C(=O)OC[C@@H]2Cc2ccc(OC)c(OC)c2)ccc1O
yes (1)

Request: CC(C)n1cnc2c(NCc3ccccc3O)nc(NCCCO)nc21
yes (1)

***
Please determine if CC(C)[C@H](CO)Nc1nc(Nc2cc(N)cc(Cl)c2)c2ncn(C(C)C)c2n1 is below 1 °C in terms of ΔTm.
no (0)

Request: O=C1C=C2C(=Nc3c2c2c(c4c3=NC3=C4CCC=C3)C=NC=2)CC1
no (0)

Request: NC(=O)c1ccc(-c2nc(-c3ccc4c(c3)OCCO4)c(-c3ccccn3)[nH]2)cc1
yes (1)

Request: CN(C)S(=O)(=O)c1ccc2c(c1)/C(=C/c1cc3c([nH]1)CCCC3)C(=O)N2
yes (1)

Request: COc1cc(O)c2c(c1)oc(=O)c1c3cc(O)c(O)cc3oc21
no (0)

Request: O=C(O)c1cc(NCc2cc(O)ccc2O)ccc1O
yes (1)

* * *

- Measurement Target: Serine/threonine-protein kinase 38 (Homo sapiens) (UniProt Q15208)
- Sequence (Q15208 2-465 limits assumed): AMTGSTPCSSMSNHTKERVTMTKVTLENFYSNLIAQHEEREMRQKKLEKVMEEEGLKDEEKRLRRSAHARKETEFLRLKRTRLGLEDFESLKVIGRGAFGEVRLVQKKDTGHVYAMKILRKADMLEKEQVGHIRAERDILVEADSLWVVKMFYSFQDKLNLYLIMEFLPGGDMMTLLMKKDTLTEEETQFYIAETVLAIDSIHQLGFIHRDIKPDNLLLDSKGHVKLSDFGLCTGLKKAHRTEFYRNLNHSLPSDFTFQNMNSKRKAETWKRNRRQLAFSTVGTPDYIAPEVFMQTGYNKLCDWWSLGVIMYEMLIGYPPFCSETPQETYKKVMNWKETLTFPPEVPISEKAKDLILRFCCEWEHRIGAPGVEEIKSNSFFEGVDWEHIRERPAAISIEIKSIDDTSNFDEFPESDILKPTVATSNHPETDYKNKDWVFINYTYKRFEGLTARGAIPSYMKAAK
Note: every record was labeled by where its ΔTm sits among one = under 0.3 °C, two = from 0.3 °C up to 0.9 °C, three = 0.9 °C and over

# example entries with known answers
Just checking, what class would you give O=C1NC(=O)C(c2c[nH]c3ccccc23)=C1c1c[nH]c2ccccc12 here?
two

Request: COc1cc(O)c2c(c1)oc(=O)c1c3cc(O)c(O)cc3oc21
two

Request: Nc1cc2ncnc(Nc3cccc(Br)c3)c2cc1N
one

Request: Oc1ccc(-c2nc(-c3ccc(F)cc3)c(-c3ccncc3)[nH]2)cc1
two

Request: COc1ccc(COc2ccc(Cc3cnc(N)nc3N)cc2OC)cc1
one

Request: COc1ccc2c(c[n+](C)c3c4cc5c(cc4ccc23)OCO5)c1OC [CHELERYTHRINE CHLORIDE]
one

Request: COc1cc(/C=C/C(=O)CC(=O)/C=C/c2ccc(O)c(OC)c2)ccc1O
three

Request: Nc1nc(Nc2ccc(S(N)(=O)=O)cc2)nn1C(=S)Nc1c(F)cccc1F
three

Request: O=C1NC(=O)c2c1c1c3ccccc3[nH]c1n1cncc21 [ISOGRANULATIMIDE]
three

Request: NS(=O)(=O)c1ccc(Nc2nc(OCC3CCCCC3)c3nc[nH]c3n2)cc1
three

***
Just checking, what class would you give N#CCCc1ccc2c(c1)-c1[nH]c3ccc([N+](=O)[O-])cc3c1CC(=O)N2 here?
three

Request: CCOc1cc2ncnc(Nc3cccc(Br)c3)c2cc1OCC
two

Request: N#C/C(=C1/Nc2ccccc2S1)c1ccnc(NCCc2cccnc2)n1
three

Request: O=C1Nc2ccc(I)cc2/C1=C\c1cc(Br)c(O)c(Br)c1
two

Request: Nc1cccc(-c2cc3c(Oc4cccc(O)c4)ncnc3[nH]2)c1
three

Request: COc1cc2ncnc(Nc3cccc(Br)c3)c2cc1OC
two

* * *

Serine/threonine-protein kinase VRK1 (Homo sapiens) (UniProt Q99986): reported ΔTm for various molecules.
Sequence (Q99986 whole entry): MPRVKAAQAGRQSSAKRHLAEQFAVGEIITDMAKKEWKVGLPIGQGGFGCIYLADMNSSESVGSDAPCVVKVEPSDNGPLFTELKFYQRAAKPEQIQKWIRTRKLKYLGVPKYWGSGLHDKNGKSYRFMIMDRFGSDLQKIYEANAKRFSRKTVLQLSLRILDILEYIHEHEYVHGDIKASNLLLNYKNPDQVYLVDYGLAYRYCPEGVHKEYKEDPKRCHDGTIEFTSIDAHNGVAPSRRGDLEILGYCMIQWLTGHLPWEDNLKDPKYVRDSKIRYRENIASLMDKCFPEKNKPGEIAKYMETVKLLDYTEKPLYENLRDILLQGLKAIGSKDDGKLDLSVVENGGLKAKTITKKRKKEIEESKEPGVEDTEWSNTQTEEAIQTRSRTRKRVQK
Write the value in °C as a bare number.

Recorded ΔTm of CN(C)CCCn1cc(C2=C(c3c[nH]c4ccccc34)C(=O)NC2=O)c2ccccc21 [GF-109203] , please.
0.2

Request: O=S(=O)(c1cccc2c(Cl)cccc12)N1CCCNCC1
0.3

***
Recorded ΔTm of NC1=N/C(=C2/CCNC(=O)c3[nH]ccc32)C(=O)N1 [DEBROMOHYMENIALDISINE] , please.
1.3

Request: CN(C)CC1CCn2c(c(C3=C(c4c[nH]c5ccccc45)C(=O)NC3=O)c3ccccc32)C1 (stereo not given)
0.5

Request: Nc1n[nH]c2nnc(-c3c(-c4ccccc4)nn4ccccc34)cc12
-0.3

Request: O=C1Cc2c([nH]c3ccc(Br)cc23)-c2ccccc2N1 [KENPAULLONE]
-0.1

Request: CC(C)n1cnc2/c(=N/c3cccc(Cl)c3)nc(NCCO)[nH]c21
0.5

* * *

Quick reference: ΔTm of the listed items.
- Measurement Target: Tyrosine-protein kinase JAK1 (Homo sapiens)
Please make sure the unit comes right after the number.

Examples with their reported ΔTm follow.
Form entry - test system: Tyrosine-protein kinase JAK1 (Homo sapiens); read-out: ΔTm; molecule: N#CCCc1ccc2c(c1)-c1[nH]c3ccc([N+](=O)[O-])cc3c1CC(=O)N2
1.4 °C

Request: N#C/C(=C(/N)Sc1ccc(N)cc1)c1ccccc1C(F)(F)F
-5 °C

Request: O=[N+]([O-])c1ccc(-c2nc(-c3ccc(F)cc3)c(-c3ccncc3)[nH]2)cc1
3.7 °C

Request: Cc1[nH]c(/C=C2\C(=O)Nc3ccc(S(=O)(=O)N(C)c4cccc(Cl)c4)cc32)c(C)c1C(=O)N1CCN(C)CC1
3.4 °C

Proceed to the following item.
Form entry - test system: Tyrosine-protein kinase JAK1 (Homo sapiens); read-out: ΔTm; molecule: O=C1Nc2ccccc2/C1=C\c1ccc[nH]1
8.5 °C

* * *

- Measurement Target: Serine/threonine-protein kinase PAK 4 (Homo sapiens) (UniProt O96013)
- Sequence (O96013 whole entry, looked up): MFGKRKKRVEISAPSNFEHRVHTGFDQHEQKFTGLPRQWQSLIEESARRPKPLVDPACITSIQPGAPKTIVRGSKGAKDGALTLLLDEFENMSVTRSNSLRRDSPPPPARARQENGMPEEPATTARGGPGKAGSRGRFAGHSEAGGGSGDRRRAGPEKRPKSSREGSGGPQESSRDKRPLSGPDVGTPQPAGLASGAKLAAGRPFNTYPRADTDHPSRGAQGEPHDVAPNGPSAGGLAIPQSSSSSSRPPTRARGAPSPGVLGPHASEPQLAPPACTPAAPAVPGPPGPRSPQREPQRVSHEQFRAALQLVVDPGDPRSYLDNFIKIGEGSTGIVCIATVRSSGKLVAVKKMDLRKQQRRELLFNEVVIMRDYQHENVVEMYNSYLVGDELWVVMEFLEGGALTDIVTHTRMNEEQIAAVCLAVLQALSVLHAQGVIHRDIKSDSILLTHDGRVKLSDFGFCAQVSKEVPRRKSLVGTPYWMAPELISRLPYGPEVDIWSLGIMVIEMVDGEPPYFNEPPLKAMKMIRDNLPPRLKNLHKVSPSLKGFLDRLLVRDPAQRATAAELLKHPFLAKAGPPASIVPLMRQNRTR
Note: every record was labeled by where its ΔTm sits among 0 = under 0.4 °C, 1 = from 0.4 °C up to 2 °C, 2 = 2 °C and over

# example entries with known answers
Just checking, what class would you give Cn1cc(/C=C2/C(=O)Nc3ccc(S(N)(=O)=O)cc32)c2ccccc21 here?
2

Request: N#C/C(=C\c1ccc(O)c(O)c1)C(=O)NCc1ccccc1
0

Request: NC1=NC(=O)/C(=C2\CCNC(=O)c3[nH]c(Br)cc32)N1
1

Request: O=c1cc(N2CCOCC2)oc2c(-c3ccccc3)cccc12
1

***
Just checking, what class would you give O=C1Cc2c([nH]c3ccc(Br)cc23)-c2ccccc2N1 here?
2

Request: O=c1c(O)c(-c2ccc(O)c(O)c2)oc2cc(O)cc(O)c12
2

Request: O=C1Nc2ccccc2/C1=C\c1ccc[nH]1
1

Request: CC(C)(C)n1nc(-c2cccc3ccccc23)c2c(N)ncnc21
1

Request: O=C1NC(=O)c2c1c1c3ccccc3n3c1c1c2c2ccccc2n1C1CCC3O1
2

* * *

- Measurement Target: Serine/threonine-protein kinase 4 (Homo sapiens) (UniProt Q13043)
- Sequence (Q13043 whole entry): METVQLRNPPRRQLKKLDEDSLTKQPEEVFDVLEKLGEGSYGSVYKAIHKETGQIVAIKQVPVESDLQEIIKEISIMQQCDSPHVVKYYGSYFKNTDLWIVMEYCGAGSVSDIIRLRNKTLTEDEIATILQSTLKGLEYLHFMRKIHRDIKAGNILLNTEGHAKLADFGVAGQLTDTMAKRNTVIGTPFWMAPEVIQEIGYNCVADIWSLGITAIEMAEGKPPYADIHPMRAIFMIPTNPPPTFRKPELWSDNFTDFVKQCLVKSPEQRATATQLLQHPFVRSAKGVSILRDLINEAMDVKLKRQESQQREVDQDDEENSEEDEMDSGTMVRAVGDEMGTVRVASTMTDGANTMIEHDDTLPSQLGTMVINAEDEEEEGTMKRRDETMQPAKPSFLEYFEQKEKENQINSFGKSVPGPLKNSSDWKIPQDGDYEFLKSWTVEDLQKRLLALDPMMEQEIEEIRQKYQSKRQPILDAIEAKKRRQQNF
Measure: ΔTm

Examples with their reported ΔTm follow.
Form entry - test system: Serine/threonine-protein kinase 4 (Homo sapiens) (UniProt Q13043); read-out: ΔTm; compound: CCN(CC)CCNC(=O)c1c(C)[nH]c(/C=C2\C(=O)Nc3ccc(Cl)cc32)c1C
10.2 °C

Request: N#C/C(=C\c1ccc(O)c(O)c1)C(=O)Nc1ccccc1
0.4 °C

Request: COc1cc2c(cc1OC)-c1n[nH]c(Nc3cccc(F)c3)c1C2
0.7 °C

Request: CC(C)n1cnc2/c(=N/c3cccc(Cl)c3)nc(NCCO)[nH]c21
3.4 °C

Request: O=C1C=C2C(=Nc3c2c2c(c4c3=NC3=C4CCC=C3)C=NC=2)CC1
2.1 °C

***
Form entry - test system: Serine/threonine-protein kinase 4 (Homo sapiens) (UniProt Q13043); read-out: ΔTm; compound: O=[N+]([O-])c1ccc(-c2nc(-c3ccc(F)cc3)c(-c3ccncc3)[nH]2)cc1
1.4 °C

Request: Ic1cccc(CSc2nnc(-c3ccncc3)o2)c1
-0.4 °C

Request: Cc1ccc(NC2=CC(=O)c3sc(C)nc3C2=O)cc1
-1.3 °C

Request: CC(C)(C)c1cc(C=C2C(=O)C=CC2=O)cc(C(C)(C)C)c1O
1.2 °C

Request: O=c1cc(N2CCOCC2)oc2c(-c3ccccc3)cccc12
0.6 °C

Request: NCCNc1ncc(C(N)=O)c(Nc2cccc(C(F)(F)F)c2)n1
0.7 °C

Request: NC1=NC(=O)/C(=C2\CCNC(=O)c3[nH]c(Br)cc32)N1
5.2 °C

Request: O=c1cc(N2CCOCC2)oc2c1ccc1ccccc12
0.2 °C
